target: CB1Rs (Mus musculus (Mouse), UniProt P47746); assay: Competition receptor binding with [3H]CP-55,940 in mouse brain homogenates; details: mouse brain homogenates, 0.2 nM [3H]CP-55,940; read-out: CB1R affinity (Ki)
quantity: Ki (nM)
Please state the figure in nM; there is no need to write the unit.

Measured Ki for this entry CCCCn1cc(C(=O)c2cccc3ccccc23)c2ccc(O)cc21 [Compound M3] on CB1Rs (Mus musculus (Mouse), UniProt P47746): 1280

* * *

Measured melting point accompanies every entry in the list below.

Solved cases (5 shown):
compound-structure	recorded-result
CCCCn1cc(C(=O)Cc2ccccc2F)c2cccc(OC)c21	86 to 88 °C
COc1cccc2c(C(=O)c3cccc4ccccc34)cn(CCN3CCOCC3)c12	149 to 152 °C
CCCCn1cc(C(=O)Cc2ccc(OC)cc2)c2cccc(OC)c21	72 to 74 °C
CCCCn1cc(C(=O)Cc2cccc3ccccc23)c2cccc(OC)c21	110 to 113 °C
CCCCn1cc(-c2cccc3ccccc23)c2cccc(OC)c21	74 to 76 °C

The recorded melting point for entry CCCCn1cc(C(=O)Cc2ccccc2)c2cccc(OC)c21 equals 65 to 68 °C

* * *

target: CB1Rs (Mus musculus (Mouse)); assay: [35S]GTPγS binding assay (G-protein activation) in mouse brain homogenates; format: biochemical; conditions: concentration-effect, mouse brain homogenates; read-out: [35S]GTPγS Binding EC50
Measured pEC50 accompanies every entry in the list below.
// pEC50 here means minus log10 of the molar concentration (mol/L)

Solved cases (2 shown):
molecule	measurement-target	recorded-result
CCCCCCC(C)(C)c1ccc(C2CC(O)CC[C@H]2CCCO)c(O)c1 (stereo partly drawn)	CB1Rs (Mus musculus (Mouse))	8.12
CCCCn1cc(C(=O)c2cccc3ccccc23)c2c(O)cccc21	CB1Rs (Mus musculus (Mouse))	6.95

Let us examine a further case.
The recorded pEC50 for entry CCCCn1cc(C(=O)c2cccc3ccccc23)c2ccccc21 equals 6.56

* * *

target: CB1Rs endogenously expressed in Neuro2A cells (Mus musculus (Mouse)); assay: Adenylyl cyclase (AC) inhibition via CB1Rs endogenously expressed in Neuro2A cells; conditions: Neuro2A cells
quantity: IC50 (nM)
Please state the figure in nM; there is no need to write the unit.

The recorded IC50 for entry CCCCn1cc(C(=O)c2cccc3ccccc23)c2cccc(O)c21 [Compound M4] equals 225

* * *

Measured [35S]GTPγS Binding, 1 μM accompanies every entry in the list below.
biological target: CB1Rs (Mus musculus (Mouse), UniProt P47746); test: [35S]GTPγS binding assay (G-protein activation) in mouse brain homogenates; assay type: biochemical; conditions: 1 μM
Please state the figure in pmol/mg; there is no need to write the unit.

Solved cases (3 shown):
compound	[35S]GTPγS Binding, 1 μM (pmol/mg)
O=C(c1cccc2ccccc12)c1cn(CCCCO)c2ccccc12 [Compound M5]	0.12
CCCCn1cc(C(=O)c2cccc3ccccc23)c2ccccc21 [JWH-073]	0.27
CCCCn1cc(C(=O)c2cccc3ccccc23)c2ccc(O)cc21 [Compound M3]	0.04

Let us examine a further case.
The recorded [35S]GTPγS Binding, 1 μM for entry CCCCn1cc(C(=O)c2cccc3ccccc23)c2c(O)cccc21 [Compound M1] equals 0.17

* * *

molecular target: CB1Rs (Mus musculus (Mouse)); assay: Competition receptor binding with [3H]CP-55,940 in mouse brain homogenates; conditions: Table 3; read-out: mCB1R Ki
Measured pKi accompanies every entry in the list below.
// pKi here means minus log10 of the molar concentration (mol/L)

Solved cases (4 shown):
molecule	pKi
CCCCn1cc(C(=O)c2cccc3ccccc23)c2cccc(O)c21 [Compound M4]	7.62
CCCCn1cc(C(=O)Cc2ccc(F)cc2)c2cccc(OC)c21 [TV-5-129]	6.41
CCCCn1cc(-c2ccc3ccccc3c2)c2cccc(OC)c21 [TV-6-41]	7.43
CCCCn1cc(C(=O)c2cccc3ccccc23)c2ccccc21 [JWH-073]	7.89

Let us examine a further case.
The recorded pKi for entry CCCCn1cc(Cc2cccc3ccccc23)c2cccc(OC)c21 [TV-5-249] equals 7.81

* * *

target: hCB2Rs (Homo sapiens (Human), UniProt P34972); assay: Competition receptor binding with [3H]CP-55,940 in CHO-hCB2 cell homogenates; settings: CHO-hCB2 homogenates (100 μg); listed as JWH-073-M4; read-out: affinity (Ki) at hCB2Rs
quantity: Ki

Measured Ki for this entry CCCCn1cc(C(=O)c2cccc3ccccc23)c2cccc(O)c21 on hCB2Rs (Homo sapiens (Human), UniProt P34972): ~250 nM

* * *

molecular target: UniProtKB P34972; assay: Competition receptor binding with [3H]CP-55,940 in CHO-hCB2 cell homogenates; details: Table 3; read-out: hCB2R Ki
Measured pKi accompanies every entry in the list below.
// pKi here means minus log10 of the molar concentration (mol/L)

compound	measurement-target	quantity	recorded-result
CCCCn1cc(C(=O)c2cccc3ccccc23)c2ccccc21 [JWH-073]	UniProtKB P34972	pKi	8.01

Measured pKi for this entry CCCCn1cc(Cc2cccc3ccccc23)c2cccc(OC)c21 [TV-5-249] on UniProtKB P34972: 7.96

Measured pKi for this entry CCCCn1cc(C(=O)c2cccc3ccccc23)c2cccc(O)c21 [Compound M4] on UniProtKB P34972: 7.11

Measured pKi for this entry CCCCn1cc(-c2ccc3ccccc3c2)c2cccc(OC)c21 [TV-6-41] on UniProtKB P34972: 7.58

Measured pKi for this entry CCCCn1cc(C(=O)Cc2ccc(F)cc2)c2cccc(OC)c21 [TV-5-129] on UniProtKB P34972: 6.55

* * *

Measured Ki accompanies every entry in the list below.
biological target: hCB2Rs (Homo sapiens (Human), UniProt P34972); assay: Competition receptor binding with [3H]CP-55,940 in CHO-hCB2 cell homogenates; conditions: CHO-hCB2 homogenates (100 μg); read-out: affinity (Ki) at hCB2Rs
Please state the figure in nM; there is no need to write the unit.

compound-structure	unit-name	Ki
CCCCn1cc(C(=O)c2cccc3ccccc23)c2cccc(O)c21	nM	251

The recorded Ki for entry CCCCn1cc(C(=O)c2cccc3ccccc23)c2ccccc21 equals 9.84

* * *

Measured [35S]GTPγS Binding, +O-2050 (1 μM) accompanies every entry in the list below.
target: CB1Rs (Mus musculus (Mouse), UniProt P47746); experiment: [35S]GTPγS binding assay (G-protein activation) in mouse brain homogenates; assay type: biochemical; details: 1 μM cannabinoid (100 nM for CP-55,940) co-incubated with CB1R antagonist O-2050 1 μM
Please state the figure in pmol/mg; there is no need to write the unit.

Solved cases (4 shown):
molecule	unit-name	recorded-result
CCCCn1cc(C(=O)c2cccc3ccccc23)c2ccc(O)cc21	pmol/mg	0.02
CCCCn1cc(C(=O)c2cccc3ccccc23)c2ccccc21	pmol/mg	0.07
CCCCCCC(C)(C)c1ccc(C2CC(O)CC[C@H]2CCCO)c(O)c1 (some centres unmarked)	pmol/mg	0.06
CCCCn1cc(C(=O)c2cccc3ccccc23)c2c(O)cccc21	pmol/mg	0.07

Let us examine a further case.
The recorded [35S]GTPγS Binding, +O-2050 (1 μM) for entry O=C(c1cccc2ccccc12)c1cn(CCCCO)c2ccccc12 equals 0.05

* * *

target: CB1Rs (Mus musculus (Mouse)); assay: Competition receptor binding with [3H]CP-55,940 in mouse brain homogenates; conditions: mouse brain homogenates, 0.2 nM [3H]CP-55,940; read-out: [3H]CP binding Ki
quantity: Ki (nM)
Please state the figure in nM; there is no need to write the unit.

compound-structure	Ki, nM
CCCCn1cc(C(=O)c2cccc3ccccc23)c2ccccc21	12.9
O=C(c1cccc2ccccc12)c1cn(CCCCO)c2ccccc12	224
CCCCn1cc(C(=O)c2cccc3ccccc23)c2cccc(O)c21	122

Let us examine a further case.
Measured Ki for this entry CCCCn1cc(C(=O)c2cccc3ccccc23)c2c(O)cccc21 on CB1Rs (Mus musculus (Mouse)): 14.1

* * *

biological target: CB1Rs (Mus musculus (Mouse)); assay: [35S]GTPγS binding assay (G-protein activation) in mouse brain homogenates; type: biochemical; conditions: read-out: EC50 of JWH-018 in the presence of M4; + M4 10 μM
quantity: EC50 (µM)
Please state the figure in µM; there is no need to write the unit.

The recorded EC50 for entry CCCCCn1cc(C(=O)c2cccc3ccccc23)c2ccccc21 [JWH-018] equals 1.56

Source listed as patent US9416103B2.
